target: 5-hydroxytryptamine receptor 7 (Homo sapiens) (UniProt P34969); details: Compound concentration 10 µM
Sequence (P34969 whole entry): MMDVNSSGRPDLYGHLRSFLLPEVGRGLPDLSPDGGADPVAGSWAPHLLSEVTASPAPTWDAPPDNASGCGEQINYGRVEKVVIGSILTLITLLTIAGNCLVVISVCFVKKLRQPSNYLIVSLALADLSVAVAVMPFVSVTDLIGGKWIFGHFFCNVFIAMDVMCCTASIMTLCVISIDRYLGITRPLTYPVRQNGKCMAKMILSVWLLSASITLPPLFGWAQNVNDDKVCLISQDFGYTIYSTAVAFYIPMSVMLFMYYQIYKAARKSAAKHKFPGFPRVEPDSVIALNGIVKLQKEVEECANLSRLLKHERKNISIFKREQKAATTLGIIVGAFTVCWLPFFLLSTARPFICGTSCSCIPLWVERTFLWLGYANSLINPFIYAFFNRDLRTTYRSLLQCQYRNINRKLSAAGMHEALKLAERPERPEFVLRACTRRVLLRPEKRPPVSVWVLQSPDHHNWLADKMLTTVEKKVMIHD
Description: PDSP Primary Binding target: HTR7 - Compounds are tested at 10 uM concentration, plate are incubated at room temperature in the dark for 90 minutes. Reaction are stopped by vacuum filtration onto 0.3% polyethyleneimine soaked filter mats using Filtermate harvester. Scintilation cocktail is then melted onto microwave-dried filters on a hot plate and the radio activity is counted in Microbia counter.
outcomeMeasure: inhibition

compound=Cc1c(P(=S)(c2ccccc2)c2ccccc2)n2ccccc2[n+]1C/C=C/c1ccccc1 outcomemeasure=inhibition val=34.3%
compound=CNC[C@H](O)c1ccc(O)c(O)c1 outcomemeasure=inhibition val=-8.3%
compound=Nc1nc2c(c(N3CCNCC3)n1)CCC1=C2[C@@H]2CCCC[C@@H]2O1 outcomemeasure=inhibition val=17.8%
compound="CC(C)(C(=O)O)c1ccc(C(O)CCCN2CCC(C(O)(c3ccccc3)c3ccccc3)CC2)cc1 (centres undefined)" outcomemeasure=inhibition val=4.24%
compound=C[C@H](CO)Nc1nc(SCc2cccc(Cl)c2F)nc2[nH]c(=O)sc12 outcomemeasure=inhibition val=-7.53%
compound=Cc1cc(C)c(N)c(C#Cc2cccc(F)c2)n1 outcomemeasure=inhibition val=7.78%
compound=COc1ccc(NC(=O)c2ccc(-c3ccc(-c4noc(C)n4)cc3C)cc2)cc1OCCN(C)C outcomemeasure=inhibition val=78.8%
compound=COC(=O)[C@H]1[C@H]2C[C@H]3c4[nH]c5ccccc5c4CCN3C[C@H]2CC[C@@H]1O outcomemeasure=inhibition val=85.2%
compound=COc1ccc(NS(=O)(=O)c2sc3ccc(Cl)cc3c2C)cc1N1CCNCC1 outcomemeasure=inhibition val=38.3%
compound=O=C(O)c1n[nH]c2c1C[C@H]1C[C@@H]21 outcomemeasure=inhibition val=-5.09%
compound=Cc1c(C2=CCN(C(=O)N(C)C(C)C)CC2)nnn1-c1cccnc1F outcomemeasure=inhibition val=-7.92%
compound="CC(C)NCC(O)COc1cccc2ccccc12 (centres undefined)" outcomemeasure=inhibition val=13.3%
compound=CN(C)C(=O)C(CCN1CCC(O)(c2ccc(Cl)cc2)CC1)(c1ccccc1)c1ccccc1 outcomemeasure=inhibition val=20.8%
compound=CCC[C@H](Oc1cc(C)c(-n2cc(C(F)(F)F)cn2)c(C)c1)c1ccc(C(=O)NCCC(=O)O)cc1 outcomemeasure=inhibition val=-2.87%
compound=COc1ccccc1N1CCN(CCCCNC(=O)c2ccc3ccccc3c2)CC1 outcomemeasure=inhibition val=102%
compound=Cc1ccc2c(c1)c1c(n2CCc2ccc(C)nc2)CCN(C)C1 outcomemeasure=inhibition val=90.7%
compound=Cc1nc(-c2ccc(C(F)(F)F)cc2)sc1COc1ccc([C@H](CC(=O)O)c2ccon2)cc1 outcomemeasure=inhibition val=4.07%
compound=NC[C@H](O)c1ccc(O)c(O)c1 outcomemeasure=inhibition val=-5%
compound="CN(C(=O)Cc1ccc(Cl)c(Cl)c1)C(CN1CCCC1)c1cccc(OCC(=O)O)c1 (centres undefined)" outcomemeasure=inhibition val=-9.81%
compound=COc1ccc2cc(S(=O)(=O)N[C@H](CC(=O)N[C@H](Cc3ccc(CN4[C@H](C)CCC[C@@H]4C)cc3)C(=O)N(C)C(C)C)c3ccc4c(c3)OCO4)ccc2c1 outcomemeasure=inhibition val=-0.02%
compound=COc1ccccc1CN[C@H]1C2CCN(CC2)[C@H]1C(c1ccccc1)c1ccccc1 outcomemeasure=inhibition val=-6.37%
compound="CCOC(=O)c1c(C)[nH]c2ccc3c(c12)CN1CCc2cc(OC)ccc2C1O3 (centres undefined)" outcomemeasure=inhibition val=9.23%
compound=N#Cc1ccc2[nH]cc(CCCCN3CCN(c4ccc5oc(C(N)=O)cc5c4)CC3)c2c1 outcomemeasure=inhibition val=82.4%
compound=CN(C)C(=O)N[C@H]1CC[C@H](CCN2CCN(c3cccc(Cl)c3Cl)CC2)CC1 outcomemeasure=inhibition val=104%
compound=COc1cccc(-c2c(C)n(Cc3c(F)cccc3C(F)(F)F)c(=O)n(C[C@H](NCCCC(=O)O)c3ccccc3)c2=O)c1F outcomemeasure=inhibition val=34.2%
compound=O=S1(=O)c2cccc3cccc(c23)N1CCCN1CCN(c2ccc(F)cc2)CC1 outcomemeasure=inhibition val=90.5%
compound=CCc1cc2c(cc1CC)CC(NC[C@H](O)c1ccc(O)c3[nH]c(=O)ccc13)C2 outcomemeasure=inhibition val=-0.79%
compound=Brc1c(NC2=NCCN2)ccc2nccnc12 outcomemeasure=inhibition val=69.9%
compound="COc1ccc(C2(O)OC(=O)C(c3ccc4c(c3)OCO4)=C2Cc2cc(OC)c(OC)c(OC)c2)cc1 (centres undefined)" outcomemeasure=inhibition val=12%
compound=FC(F)(F)c1cccc(-c2noc(-c3cc(-c4ccccc4)c(C(F)(F)F)s3)n2)c1 outcomemeasure=inhibition val=7.06%
compound=CCc1nn2c(C)cc(C)nc2c1Cc1ccc(-c2nnc(C3CCNCC3)o2)cc1 outcomemeasure=inhibition val=5.87%
compound=CSc1ccc(C(=O)N[C@@H]2CCCC[C@@H]2NC(=O)CNC(=O)c2cc(C(F)(F)F)ccc2NC(=O)NC(C)C)cc1 outcomemeasure=inhibition val=2.72%
compound=COc1cc(-n2cnc3cc(-c4ccc(Cl)cc4)sc3c2=O)ccc1OCCN1CCCC1 outcomemeasure=inhibition val=16.4%
compound=C[C@@H](NCCCc1cccc(C(F)(F)F)c1)c1cccc2ccccc12 outcomemeasure=inhibition val=51.6%
compound=COC(=O)C1=C(C)NC(C)=C(C(=O)OCCCN2CCC(c3ccccc3)(c3ccccc3)CC2)[C@H]1c1cccc([N+](=O)[O-])c1 outcomemeasure=inhibition val=84.6%
compound=S=C(NCCCc1c[nH]cn1)NCCCN(Cc1ccc(Cl)c(Cl)c1)c1ccc(Br)cn1 outcomemeasure=inhibition val=74.9%
compound=c1nc(CC2CCNCC2)c[nH]1 outcomemeasure=inhibition val=11.9%
compound=Cc1nn(C)c(C)c1-c1cccc2c1CC[C@H](N(C)C)C2 outcomemeasure=inhibition val=94.1%
compound=CN1C(=O)[C@@H](NC(=O)c2cc3ccccc3[nH]2)N=C(c2ccccc2)c2ccccc21 outcomemeasure=inhibition val=13.6%

====

Listed below: inhibition values for each entry.
target: 5-hydroxytryptamine receptor 1E (Homo sapiens); details: Compound concentration 10 µM
Description: PDSP Primary Binding target: HTR1E - Compounds are tested at 10 uM concentration, plate are incubated at room temperature in the dark for 90 minutes. Reaction are stopped by vacuum filtration onto 0.3% polyethyleneimine soaked filter mats using Filtermate harvester. Scintilation cocktail is then melted onto microwave-dried filters on a hot plate and the radio activity is counted in Microbia counter.
outcomeMeasure: inhibition (%)

compound="OCc1cc(C(O)CNCCCCCCOCCCCc2ccccc2)ccc1O (stereo not given)" readoutunit=% val=17.4
compound=COc1ccc(NS(=O)(=O)c2sc3ccc(Cl)cc3c2C)cc1N1CCNCC1 readoutunit=% val=13.8
compound=CCCCCNC(=O)NS(=O)(=O)c1cc([N+](=O)[O-])ccc1NC1CCCCC1 readoutunit=% val=16.8
compound="CC(C)(C(=O)O)c1ccc(C(O)CCCN2CCC(C(O)(c3ccccc3)c3ccccc3)CC2)cc1 (stereo not given)" readoutunit=% val=-8.04
compound=Cc1c(C(=O)NC2CCCCC2)sc2nc3ccc(N)cc3n12 readoutunit=% val=5.97
compound=Cc1csc2c(N[C@@H](C)CN3CCN(S(=O)(=O)c4ccc(Cl)c(Cl)c4)CC3)ncnc12 readoutunit=% val=-3.07
compound="CC(C)NCC(O)COc1cccc2ccccc12 (stereo not given)" readoutunit=% val=3.24
compound=CNc1nc(NCc2ccc(NS(C)(=O)=O)cc2Cl)cc(-c2ccccn2)n1 readoutunit=% val=-3.24
compound=C[C@]1(C(=O)N(CCCC(=O)O)Cc2cccc(Cl)c2)CCN1C(=O)c1csc2ccccc12 readoutunit=% val=-8.85
compound=S=C(NCCCc1c[nH]cn1)NCCCN(Cc1ccc(Cl)c(Cl)c1)c1ccc(Br)cn1 readoutunit=% val=7.46
compound="CCOC(=O)c1c(C)[nH]c2ccc3c(c12)CN1CCc2cc(OC)ccc2C1O3 (stereo not given)" readoutunit=% val=-6.16
compound=C[N+]1(C)[C@@H]2C[C@@H](OC(=O)C(O)(c3cccs3)c3cccs3)C[C@H]1[C@@H]1O[C@@H]12 readoutunit=% val=11.2
compound=COc1cccc([C@H](O)C2CCN(CCc3ccc(F)cc3)CC2)c1OC readoutunit=% val=-0.41
compound=Cc1cc(C(=O)N2Cc3cnn(C)c3Nc3ccccc32)ccc1CNC(=O)N1CCC[C@H]1C(=S)N1CCCN(C)CC1 readoutunit=% val=4.73
compound=NCCc1cn(S(=O)(=O)c2c(Cl)nc3sccn23)c2ccccc12 readoutunit=% val=23.3
compound=COc1ccc(OC(F)(F)F)cc1CN[C@H]1CCCN[C@H]1c1ccccc1 readoutunit=% val=12.4
compound=NC(=O)[C@@H]1CCCN1C(=O)[C@H](Cc1c[nH]cn1)NC(=O)[C@@H]1CCC(=O)N1 readoutunit=% val=-5.34
compound=COC(=O)C1=C(C)NC(C)=C(C(=O)OCCCN2CCC(c3ccccc3)(c3ccccc3)CC2)[C@H]1c1cccc([N+](=O)[O-])c1 readoutunit=% val=40
compound=Clc1cccc(COc2cncc(N3CCNCC3)n2)c1 readoutunit=% val=76
compound=N#Cc1ccc(NC(=O)Nc2ccccc2Br)c2nn[nH]c12 readoutunit=% val=4.87

====

target: UniProt:P30536; settings: Compound concentration 10 µM
Sequence (P30536 whole entry): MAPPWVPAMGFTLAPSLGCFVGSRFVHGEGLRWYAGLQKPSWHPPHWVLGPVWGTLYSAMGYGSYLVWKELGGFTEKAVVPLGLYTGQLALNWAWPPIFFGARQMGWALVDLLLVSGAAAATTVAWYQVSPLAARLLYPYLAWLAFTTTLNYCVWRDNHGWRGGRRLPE
Description: PDSP Primary Binding target: TSPO - Compounds are tested at 10 uM concentration, plate are incubated at room temperature in the dark for 90 minutes. Reaction are stopped by vacuum filtration onto 0.3% polyethyleneimine soaked filter mats using Filtermate harvester. Scintilation cocktail is then melted onto microwave-dried filters on a hot plate and the radio activity is counted in Microbia counter.
Listed below: inhibition values for each entry.
outcomeMeasure: inhibition (%)

molecule=O=C(O)C1CN(Cc2ccc(-c3nc4cc(Cc5ccccc5F)ccc4s3)c(F)c2)C1 readoutunit=% val=22.3
molecule=COc1ccc(NS(=O)(=O)c2sc3ccc(Cl)cc3c2C)cc1N1CCNCC1 readoutunit=% val=39.5
molecule=O=C1O[C@]2(CC[C@H](C(=O)Nc3ccn(-c4ccccc4F)n3)CC2)c2cnccc21 readoutunit=% val=1.2
molecule=CN(C)C(=O)N[C@H]1CC[C@H](CCN2CCN(c3cccc(Cl)c3Cl)CC2)CC1 readoutunit=% val=29
molecule=COc1ccc(S(=O)(=O)c2cc(OC)ccc2S(=O)(=O)c2ccc([C@H](C)NS(C)(=O)=O)cc2)cc1 readoutunit=% val=25.6
molecule=CCCCN(CC)c1nc(C)nc2c1c(C)cn2-c1c(C)cc(C)cc1C readoutunit=% val=74.3
molecule=Clc1ccc(CCCOCCCN2CCCCC2)cc1 readoutunit=% val=-6.49
molecule=CCN(CC)CCCCC1CCN(CC(=O)N2c3ccccc3C(=O)Nc3cccnc32)CC1 readoutunit=% val=-2.79
molecule=CO[C@@H]1COCC[C@@H]1N[C@@H]1CC[C@@](C(=O)N2CCc3ncc(C(F)(F)F)cc3C2)(C(C)C)C1 readoutunit=% val=11.4
molecule=c1cc(CN2CCCNCCNCCCNCC2)ccc1CN1CCCNCCNCCCNCC1 readoutunit=% val=7.76
molecule=CC[C@@H]1CN2C(=O)N(C)c3nc(-c4ccccc4)[nH]c3C2=N1 readoutunit=% val=-3.48
molecule="Cc1ccccc1C(=O)Nc1ccc(C(=O)N2CCCC(O)c3cc(Cl)ccc32)c(C)c1 (stereo not given)" readoutunit=% val=35.6
molecule=Cc1nc(C#Cc2ccnc(Cl)c2)c(C)n1-c1ccc(OC(F)(F)F)cc1 readoutunit=% val=64.3
molecule=COc1cc(-n2cnc3cc(-c4ccc(Cl)cc4)sc3c2=O)ccc1OCCN1CCCC1 readoutunit=% val=11.9
molecule="OCc1cc(C(O)CNCCCCCCOCCCCc2ccccc2)ccc1O (stereo not given)" readoutunit=% val=-0.39
molecule=FC(F)(F)c1cccc(-c2noc(-c3cc(-c4ccccc4)c(C(F)(F)F)s3)n2)c1 readoutunit=% val=5.27
molecule=Brc1c(NC2=NCCN2)ccc2nccnc12 readoutunit=% val=-7.41
molecule=Cc1cc(NC(=O)NCCN2CCC(O)(Cc3ccccc3)CC2)c2ccccc2n1 readoutunit=% val=44.3
molecule="CC(C)NCC(O)COc1ccc(CCOCC2CC2)cc1 (stereo not given)" readoutunit=% val=4.48
molecule=Cc1cccc(NC(=O)N[C@@H]2N=C(c3ccccc3)c3ccccc3N(C)C2=O)c1 readoutunit=% val=27.5
molecule=O=C(Cc1ccc(Cl)c(Cl)c1)N1CCCC[C@H]1CN1CCCC1 readoutunit=% val=8.29
molecule=O=C(O)c1n[nH]c2c1C[C@H]1C[C@@H]21 readoutunit=% val=4.46
molecule=CN1CC(=O)N=C1NC(=O)Nc1cccc(Cl)c1 readoutunit=% val=-8.11
molecule=Nc1nc(NCCc2ccc(O)cc2)nc2nc(-c3ccco3)nn12 readoutunit=% val=22.4
molecule=Cc1cc(NC(=O)Nc2ccc(N(C)C)cc2)c2cc(F)cc(F)c2n1 readoutunit=% val=8.35
molecule=COC(=O)[C@H]1[C@H]2C[C@H]3c4[nH]c5ccccc5c4CCN3C[C@H]2CC[C@@H]1O readoutunit=% val=7.14
molecule=CC1CCN(CC[C@H]2CCCN2S(=O)(=O)c2cccc(O)c2)CC1 readoutunit=% val=-7.14
molecule=COc1ccccc1CN[C@H]1C2CCN(CC2)[C@H]1C(c1ccccc1)c1ccccc1 readoutunit=% val=30.2
molecule=COc1ccc(CNC(=O)c2cc(-c3cncc(Cl)c3)cnc2-c2ccccn2)nc1OC readoutunit=% val=17.5
molecule=N#Cc1c(N)nc(SCc2csc(-c3ccc(Cl)cc3)n2)c(C#N)c1-c1ccc(OCCO)cc1 readoutunit=% val=57.6
molecule=O=C1N/C(=N/c2ccccc2F)S/C1=C\c1ccc(C(=O)O)cc1 readoutunit=% val=4.31
molecule=CC(C)C[C@H](NC(=O)N1CCCCCC1)C(=O)N[C@H](Cc1cn(C)c2ccccc12)C(=O)N[C@H](Cc1ccccn1)C(=O)O readoutunit=% val=25.5
molecule=COc1ccc(OC(F)(F)F)cc1CN[C@H]1CCCN[C@H]1c1ccccc1 readoutunit=% val=17.5
molecule="O=C(c1cc2c(cc1F)OC(c1ccc(F)cc1)(c1ccc(Cl)cc1Cl)O2)N1CCOCC1 (stereo not given)" readoutunit=% val=49.3
molecule=O=C(Cc1ccccc1)Nc1nc2ccc(Cl)cc2c2nc(-c3ccco3)nn12 readoutunit=% val=18.7
molecule=COc1ccccc1N1CCN(CCCCNC(=O)c2ccc3ccccc3c2)CC1 readoutunit=% val=78.8
molecule=Cc1c(P(=S)(c2ccccc2)c2ccccc2)n2ccccc2[n+]1C/C=C/c1ccccc1 readoutunit=% val=6.66
molecule=C[C@]1(C(=O)N(CCCC(=O)O)Cc2cccc(Cl)c2)CCN1C(=O)c1csc2ccccc12 readoutunit=% val=5.72
molecule=Cc1cc(C)cc(-c2cnc3cc(Cl)c(-c4cccc(O)c4)cc3c2OCCCN)c1 readoutunit=% val=79.5
molecule=Cc1nc(C(=O)N2CCC[C@H]2Cc2nnc(-c3ccccc3)o2)c(-c2ccccc2F)s1 readoutunit=% val=57.6
